Ref: ChEMBL document CHEMBL4321813

- ASSAY COMMENT: Oral bioavailability in dog
- Type: ADME, organism-based, Canis lupus familiaris
- MEASUREMENT PARAMETERS: in vivo
ATTRIBUTE MEASURED: bioavailability (%)

- N#Cc1ccc(O[C@H]2CN(S(=O)(=O)c3ccc(Cl)cn3)C[C@@]2(O)CO)cc1F: 100
- N#Cc1ccc(O[C@H]2CN(S(=O)(=O)c3ccc(Cl)cn3)C[C@@]2(O)CN)cc1F: 84

====

- ASSAY COMMENT: Oral bioavailability in Sprague-Dawley rat at 100 mg/kg using amorphous spray dried dispersion sample by HPLC-MS/MS analysis
- Assay type: ADME, organism-based
- MEASUREMENT PARAMETERS: in vivo
Documented bioavailability across a set of compounds
ATTRIBUTE MEASURED: bioavailability

• N#Cc1ccc(O[C@H]2CN(S(=O)(=O)c3ccc(Cl)cn3)C[C@@]2(O)CO)cc1F = 79%
• N#Cc1ccc(O[C@H]2CN(S(=O)(=O)c3ccc(C(F)(F)F)cc3C#N)C[C@@]2(O)CO)cc1F = 18%

====

Measured fraction unbound, listed per entry for reference.
- ASSAY COMMENT: Protein binding in rat plasma assessed as unbound fraction
- Type: ADME, cell-free
ATTRIBUTE MEASURED: fraction unbound

• N#Cc1ccc(O[C@H]2CN(S(=O)(=O)c3ccc(C(F)(F)F)cc3)C[C@@]2(O)CO)cc1F = 0.033
• N#Cc1ccc(O[C@H]2CN(S(=O)(=O)c3ccc(Cl)cc3Cl)CC2(O)CO)cc1F (single isomer, unassigned) = 0.04
• N#Cc1ccc(O[C@H]2CN(S(=O)(=O)c3ccc(Cl)cn3)C[C@@]2(O)CO)cc1F = 0.18
• N#Cc1ccc(O[C@H]2CN(S(=O)(=O)c3ccc(Cl)cc3Cl)C[C@@]2(O)CN)cc1F (racemic) = 0.036

====

- ASSAY COMMENT: Unbound clearance in Sprague-Dawley rat at 1 mg/kg, iv administered as 30 mins infusion by HPLC-MS/MS analysis
- Assay type: ADME, organism-based
- MEASUREMENT PARAMETERS: in vivo, 0.5 h
ATTRIBUTE MEASURED: CL free (L/h/kg)

* N#Cc1ccc(O[C@H]2CN(S(=O)(=O)c3ccc(Cl)cc3Cl)CC2(O)CO)cc1F (single isomer, unassigned) | 81
* N#Cc1ccc(O[C@H]2CN(S(=O)(=O)c3ccc(Cl)cn3)C[C@@]2(O)CN)cc1F | 19.2
* N#Cc1ccc(O[C@H]2CN(S(=O)(=O)c3ccccc3C#N)C[C@@]2(O)CO)cc1F | 12
* N#Cc1ccc(O[C@H]2CN(S(=O)(=O)c3ccc(Cl)cc3)C[C@@]2(O)CO)cc1F | 92.4

====

- TARGET UNDER TEST: Transient receptor potential cation channel subfamily V member 4 (Homo sapiens)
- Sequence (Q9HBA0 whole entry): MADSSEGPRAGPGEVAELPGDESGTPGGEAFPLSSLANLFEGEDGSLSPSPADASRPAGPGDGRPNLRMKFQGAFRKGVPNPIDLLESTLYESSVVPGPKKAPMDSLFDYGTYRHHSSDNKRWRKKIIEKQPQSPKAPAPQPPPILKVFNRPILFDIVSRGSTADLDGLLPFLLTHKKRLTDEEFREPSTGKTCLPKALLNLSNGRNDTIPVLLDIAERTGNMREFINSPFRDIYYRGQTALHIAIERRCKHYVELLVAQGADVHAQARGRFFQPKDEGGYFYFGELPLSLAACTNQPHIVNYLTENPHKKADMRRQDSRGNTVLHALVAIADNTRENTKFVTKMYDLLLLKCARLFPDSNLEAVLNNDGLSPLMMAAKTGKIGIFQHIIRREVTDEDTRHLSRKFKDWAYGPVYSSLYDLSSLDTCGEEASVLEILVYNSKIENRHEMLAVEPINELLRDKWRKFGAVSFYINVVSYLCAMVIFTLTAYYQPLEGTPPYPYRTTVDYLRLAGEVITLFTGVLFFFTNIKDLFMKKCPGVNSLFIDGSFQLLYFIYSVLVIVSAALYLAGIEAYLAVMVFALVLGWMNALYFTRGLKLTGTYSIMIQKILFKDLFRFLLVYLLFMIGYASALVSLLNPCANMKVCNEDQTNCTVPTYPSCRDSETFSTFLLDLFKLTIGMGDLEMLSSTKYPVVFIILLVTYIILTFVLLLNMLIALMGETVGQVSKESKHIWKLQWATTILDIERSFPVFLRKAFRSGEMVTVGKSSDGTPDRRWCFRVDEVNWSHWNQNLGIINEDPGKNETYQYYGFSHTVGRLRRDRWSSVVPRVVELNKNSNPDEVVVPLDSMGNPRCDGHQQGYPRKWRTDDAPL
- ASSAY COMMENT: Antagonist activity at BacMam virus expressing human TRPV4 transduced in BHK/AC9 or HEK MSR2 cells assessed as inhibition of GSK634775-induced Ca2+ flux preincubated for 10 mins followed by agonist addition by Fluo-4 AM dye based FLIPR assay
- Format: cell-based
pIC50: −log10 of the molar value.
ATTRIBUTE MEASURED: pIC50

- N#Cc1ccc(O[C@H]2CN(S(=O)(=O)c3ccc(Cl)cc3Cl)CC2(O)CO)cc1F (single isomer, unassigned): 7.48
- N#Cc1ccc(O[C@H]2CN(S(=O)(=O)c3ccccc3C#N)C[C@@]2(O)CO)cc1F: 8.42
- N#Cc1ccc(O[C@H]2CN(S(=O)(=O)c3ccc(C(F)(F)F)nc3)C[C@@]2(O)CO)cc1F: 6.76
- N#Cc1ccc(O[C@H]2CN(S(=O)(=O)c3ccc(Cl)cn3)C[C@@]2(O)CO)cc1F: 7.47
